Biological target: T1, mouse CD27 (mouse, UniProt P41272 24-182, limits assumed)
T1 construct: The construct is not described; also called murine CD27
T1 sequence (looked up): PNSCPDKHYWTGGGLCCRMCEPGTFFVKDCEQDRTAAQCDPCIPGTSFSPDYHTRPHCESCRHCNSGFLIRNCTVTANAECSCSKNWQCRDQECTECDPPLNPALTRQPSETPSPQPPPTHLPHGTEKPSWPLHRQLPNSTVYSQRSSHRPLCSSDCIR
Assay: Kd table for the mAb titration on mouse CD27 (OD readout, Figure 4 B); method not given
pKd by entry:
Reminder that pKd is minus the log10 of a molar concentration.

Some solved entries appear below for comparison.
binder: TP6 (antibody, V domains shown, also called TP06) VH: QVQLVESGGGVVQPGRSLRLSCAASGFTFSSYAMHWVRQAPGKGLEWVAVISYDGSNKYYADSVKGRFTISRDNSKNTLYLQMNSLRAEDTAVYYCARGYQGGYSNFDLWGQGTLVTVSS VL: DIQMTQSPSTLSASVGDRVTITCRASQSISSWLAWYQQKPGKAPKLLIYDASSLESGVPSRFSGSGSGTDFTLTISSLQPEDFATYYCQQSYSTPYTFGQGTKLEIK
pKd: 8.10
//
binder: TP23 (antibody, V domains shown) VH: QVQLVQSGAEVKKPGASVKVSCKASGYTFTSYGISWVRQAPGQGLEWMGWISAYNGNTNYAQKLQGRVTMTTDTSTSTAYMELRSLRSDDTAVYYCARGGAGHYDYFDYWGQGTLVTVSS VL: QSVVTQPPSVSGAPGQRVTISCTGSSSNIGAGYDVHWYQQLPGTAPKLLIYGNSNRPSGVPDRFSGSKSGTSASLAITGLQAEDEADYYCQSYDSSLSGYVFGTGTKVTVL
pKd: 7.40
//
binder: TP11 (antibody, V domains shown) VH: QVQLVESGGGVVQPGRSLRLSCAASGFTFSSYAMHWVRQAPGKGLEWVAVISYDGSNKYYADSVKGRFTISRDNSKNTLYLQMNSLRAEDTAVYYCARGVSGSYARGFDVWGQGTLVTVSS VL: DIQMTQSPSTLSASVGDRVTITCRASQSISSWLAWYQQKPGKAPKLLIYDASSLESGVPSRFSGSGSGTEFTLTISSLQPEDFATYYCQQSYSTPWTFGQGTKVEIK
pKd: 9.30

Now let's try a different one.
QUERY: Answer with the recorded pKd of TP29 (antibody, V domains shown) VH: EVQLVESGGGVVQPGRSLRLSCAASGFTFSNAWMSWVRQAPGKGLEWVSAISGSGGSTYYADSVKGRFTISRDNSKNTLYLQMNSLRAEDTAVYYCARRALSLSYFDYWGQGTLVTVSS VL: QSVVTQPPSVSGAPGQRVTISCTGSSSNIGAGYDVHWYQQLPGTAPKLLIYGNSNRPSGVPDRFSGSKSGTSASLAITGLQAEDEADYYCQSYDSSLSGYVFGTGTKVTVL only.
RESULT: 9.15
